Origin of values: patent US20220211858A1

- PROCEDURE TEXT: TEM / cryo-TEM imaging of self-assembled nanostructures (dimensions)
- Format: physicochemical
- TEST CONDITIONS: self-assembled nanotubes in water, 200 μM, n>40
MEASURE NAME: Diameters measured by conventional TEM (nm)
Quick note: give the figure in nm, leave out the unit.

Incoming: For the molecule CC[C@]1(OC(=O)OCCSSC[C@@H](NC(C)=O)C(=O)N[C@@H](CCCCNC(=O)[C@@H](CSSCCOC(=O)O[C@]2(CC)C(=O)OCc3c2cc2n(c3=O)Cc3cc4ccccc4nc3-2)NC(C)=O)C(=O)N[C@@H](CCCCN)C(=O)N[C@@H](CCCCN)C(N)=O)C(=O)OCc2c1cc1n(c2=O)Cc2cc3ccccc3nc2-1 [TT 2] , give its reported Diameters measured by conventional TEM.
Outgoing: 8.1

Next:
Incoming: For the molecule CC[C@]1(OC(=O)OCCSSC[C@@H](NC(C)=O)C(=O)N[C@@H](CCCCNC(=O)[C@@H](CSSCCOC(=O)O[C@]2(CC)C(=O)OCc3c2cc2n(c3=O)Cc3cc4ccccc4nc3-2)NC(C)=O)C(=O)N[C@@H](CCC(=O)O)C(=O)N[C@@H](CCC(=O)O)C(N)=O)C(=O)OCc2c1cc1n(c2=O)Cc2cc3ccccc3nc2-1 [TT 3] , give its reported Diameters measured by conventional TEM.
Outgoing: 8.4

Incoming: For the molecule CC[C@]1(OC(=O)OCCSSC[C@@H](NC(C)=O)C(=O)N[C@@H](CCCCNC(=O)[C@@H](CSSCCOC(=O)O[C@]2(CC)C(=O)OCc3c2cc2n(c3=O)Cc3cc4ccccc4nc3-2)NC(C)=O)C(=O)N[C@@H](CCCCNC(=O)CCOCCOCCOCCOCCOC)C(=O)N[C@@H](CCCCNC(=O)CCOCCOCCOCCOCCOC)C(N)=O)C(=O)OCc2c1cc1n(c2=O)Cc2cc3ccccc3nc2-1 [TT 1] , give its reported Diameters measured by conventional TEM.
Outgoing: 8.8
